This collection of values is drawn from ChEMBL document CHEMBL4020761.

Assay remarks: Drug uptake in Sprague-Dawley rat stomach at 0.2 mg/kg, iv administered as cassette dose after 10 mins by LC-MS/MS analysis
Type: ADME, organism-based
Measurement parameters: read-out: Drug uptake
Observed property: concentration at 10 min (ng/g)
Kindly answer with a numeric value in ng/g, unit omitted.

Query string: Give concentration at 10 min for CNCc1cn(S(=O)(=O)c2cccs2)c(-c2cccnc2F)c1F
Result string: 412

* * *

Measured concentration at 10 min, listed per entry.
Assay remarks: Plasma concentration in Sprague-Dawley rat at 0.2 mg/kg, iv administered as cassette dose after 10 mins by LC-MS/MS analysis
Type: ADME, organism-based
Kindly answer with a numeric value in ng/mL, unit omitted.

CNCc1cn(S(=O)(=O)c2cccnc2)c(-c2cccnc2F)c1F	51.5
CNCc1cc(-c2cccnc2F)n(S(=O)(=O)c2ccsc2)c1	23.5
CNCc1cn(S(=O)(=O)c2cnccc2C)c(-c2cccnc2F)c1F	50.1
CNCc1cc(-c2cccnc2F)n(S(=O)(=O)c2cccs2)c1	20.8
CNCc1cn(S(=O)(=O)c2cccs2)c(-c2cccnc2F)c1F	36.6
CNCc1cn(S(=O)(=O)c2cc(OC)ccn2)c(-c2cccnc2F)c1F	37.2
CNCc1cc(-c2cccnc2F)n(S(=O)(=O)c2cccnc2)c1	37.1
CNCc1cn(S(=O)(=O)c2cncc(F)c2)c(-c2cccnc2F)c1F	43

Query string: Give concentration at 10 min for CNCc1cn(S(=O)(=O)c2ccc(C)nc2)c(-c2cccnc2F)c1F
Result string: 40.1

Query string: Give concentration at 10 min for CNCc1cn(S(=O)(=O)c2cc(C)ccn2)c(-c2cccnc2F)c1F
Result string: 39.4
